Settings: BALB/c mice, oral gavage, 200 mg/kg (qd)
ENDPOINT: weight loss (in words)

INSERT INTO assay_data (mol_smiles, data_value) VALUES
  ('CC[C@@H]1COCc2nc3c(F)cc(-c4nc(Nc5ccc(CN6CCN(CC)CC6)cn5)ncc4F)cc3n21', 'much more weight loss'),
  ('CCN1CCN(Cc2ccc(Nc3ncc(F)c(-c4cc(F)c5nc6n(c5c4)[C@H](C(C)C)COC6)n3)nc2)CC1', 'much more weight loss');

---

Biological target: CDK2/cyclin E (Homo sapiens (Human), UniProt P24941)
Test: 33P-ATP radiometric CDK kinase inhibitory activity and selectivity test
Assay type: biochemical
Conditions: 33P-ATP, P81 membrane; read-out: CDK kinase inhibitory activity IC50, CDK2/cyclin E
ENDPOINT: pIC50
The quantity pIC50 is defined as the negative base-10 logarithm of the molar concentration.

INSERT INTO measurements (molecule, data_value) VALUES
  ('CCN1CCN(Cc2ccc(Nc3ncc(F)c(-c4cc(F)c5nc6n(c5c4)C(C)CCC6)n3)nc2)CC1 (stereo not drawn) [Compound 2]', 6.32),
  ('CCN1CCN(Cc2ccc(Nc3ncc(F)c(-c4cc(F)c5nc6n(c5c4)C(C)CCC6)n3)nc2)CC1 (single isomer, unassigned) [Compound 2b]', 6.36);

Turning now to a further molecule:
Query :: I'd like to know its pIC50. The molecule in question is CCN1CCN(Cc2ccc(Nc3ncc(F)c(-c4cc(F)c5nc6n(c5c4)C(C)CCC6)n3)nc2)CC1 (single isomer, unassigned) [Compound 2a]
Result :: 6.22

---

Molecular target: CDK9/cyclin T1 (Homo sapiens (Human), UniProt P50750)
Sequence (P50750 whole entry, species assumed): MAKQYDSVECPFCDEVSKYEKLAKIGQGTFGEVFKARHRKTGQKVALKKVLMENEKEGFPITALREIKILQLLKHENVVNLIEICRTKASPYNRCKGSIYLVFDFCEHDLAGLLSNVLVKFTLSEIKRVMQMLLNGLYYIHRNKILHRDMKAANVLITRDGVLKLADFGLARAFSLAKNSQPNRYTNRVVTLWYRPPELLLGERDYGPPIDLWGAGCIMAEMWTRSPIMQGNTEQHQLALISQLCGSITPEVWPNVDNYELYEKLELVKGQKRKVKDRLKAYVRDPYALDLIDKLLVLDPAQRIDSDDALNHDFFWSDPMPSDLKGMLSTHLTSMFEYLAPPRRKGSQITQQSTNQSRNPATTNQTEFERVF
Sequence (O60563 whole entry partner, species assumed): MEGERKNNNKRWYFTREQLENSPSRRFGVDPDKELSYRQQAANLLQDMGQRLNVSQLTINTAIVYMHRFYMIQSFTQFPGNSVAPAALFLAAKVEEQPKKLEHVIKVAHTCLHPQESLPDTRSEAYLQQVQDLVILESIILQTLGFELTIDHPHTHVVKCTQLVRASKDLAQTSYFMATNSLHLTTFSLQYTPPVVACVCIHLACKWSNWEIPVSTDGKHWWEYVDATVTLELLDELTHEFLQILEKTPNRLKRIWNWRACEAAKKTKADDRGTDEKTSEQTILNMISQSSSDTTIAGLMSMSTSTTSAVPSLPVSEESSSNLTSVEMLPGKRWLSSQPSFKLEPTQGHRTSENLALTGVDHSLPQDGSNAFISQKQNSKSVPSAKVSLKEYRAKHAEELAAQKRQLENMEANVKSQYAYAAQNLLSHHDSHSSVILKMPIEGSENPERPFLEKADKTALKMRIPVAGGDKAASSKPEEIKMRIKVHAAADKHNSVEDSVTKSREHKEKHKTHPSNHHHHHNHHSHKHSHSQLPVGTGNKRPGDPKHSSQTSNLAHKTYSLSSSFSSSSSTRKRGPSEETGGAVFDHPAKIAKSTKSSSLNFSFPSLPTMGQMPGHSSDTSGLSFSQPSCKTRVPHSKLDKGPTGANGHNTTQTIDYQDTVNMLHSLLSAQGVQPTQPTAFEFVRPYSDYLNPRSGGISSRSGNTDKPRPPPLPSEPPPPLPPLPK
Assay: 33P-ATP radiometric CDK kinase inhibitory activity and selectivity test
Assay type: biochemical
Conditions: text summary for CDK1/2/7/9; read-out: IC50 for inhibiting CDK9
ENDPOINT: IC50

INSERT INTO measurements (compound, data_value) VALUES
  ('CCN1CCN(Cc2ccc(Nc3ncc(F)c(-c4cc(F)c5nc6n(c5c4)C(C)CCC6)n3)nc2)CC1 (stereo not drawn) [Compound 2]', '> 400 nM');

Query :: I'd like to know its IC50. The compound in question is CCN1CCN(Cc2ccc(Nc3ncc(F)c(-c4cc(F)c5nc6n(c5c4)C(C)CCC6)n3)nc2)CC1 (single isomer, unassigned) [Compound 2b]
Result :: > 400 nM

Query :: Another compound to look at: CCN1CCN(Cc2ccc(Nc3ncc(F)c(-c4cc(F)c5nc6n(c5c4)C(C)CCC6)n3)nc2)CC1 (single isomer, unassigned) [Compound 2a]
Result :: > 400 nM

---

Biological target: CDK2/CycA2 (Homo sapiens (Human), UniProt P24941)
Assay: CDK kinase assay (Caliper, FAM-labeled peptide)
ENDPOINT: IC50 (nM)
Return type: number; implicit unit nM.

INSERT INTO assay_data (compound, endpoint, unit, data_value) VALUES
  ('CC1(C)CCCc2nc3c(F)cc(-c4nc(Nc5ccc(N6CCN(C7COC7)CC6)cn5)ncc4F)cc3n21 [Com. EX. 5, reference compound]', 'IC50', 'nM', 40);

Turning now to a further compound:
Query :: I'd like to know its IC50. The compound in question is CC1(C)CCCc2nc3c(F)cc(-c4nc(Nc5ccc(CN6CCNCC6)cn5)ncc4F)cc3n21 [Com. EX. 6, reference compound]
Result :: 40

Data provenance is patent US11053238B2.
